assay: pKa value determined in the presence of the partition solvent for guanidine subunit.; assay type: physicochemical
Consider the following compounds; for each one, report its pKa.
Could you keep your reply to the number by itself?

q: I have this compound here, Cc1c(NC2=NCCN2)ccc2c1NCCO2 , and I need its recorded pKa.
a: 11.1

q: I have this compound here, Cc1c(NC2=NCCN2)ccc2c1NCCN2 , and I need its recorded pKa.
a: 11.3

q: I have this compound here, Cc1c(NC2=NCCN2)ccc2nccnc12 , and I need its recorded pKa.
a: 9.4

* * *

Molecular target: Alpha-2C adrenergic receptor (Homo sapiens)
Sequence (P18825 whole entry): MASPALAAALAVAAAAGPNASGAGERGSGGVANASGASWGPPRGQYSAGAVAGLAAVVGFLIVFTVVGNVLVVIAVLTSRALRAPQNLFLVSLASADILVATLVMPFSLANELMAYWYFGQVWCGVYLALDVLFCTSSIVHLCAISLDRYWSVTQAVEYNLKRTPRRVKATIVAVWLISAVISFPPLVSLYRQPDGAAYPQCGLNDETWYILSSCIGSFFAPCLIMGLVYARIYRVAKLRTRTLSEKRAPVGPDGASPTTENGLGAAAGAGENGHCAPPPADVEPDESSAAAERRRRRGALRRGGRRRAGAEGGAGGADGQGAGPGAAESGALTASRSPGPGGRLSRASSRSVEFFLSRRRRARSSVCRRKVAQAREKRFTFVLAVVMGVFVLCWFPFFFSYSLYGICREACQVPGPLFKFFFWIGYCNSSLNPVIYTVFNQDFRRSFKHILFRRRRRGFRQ
Measured Attribute: pKi
Worth noting: pKi values are minus log10 of concentrations stated in mol/L.

q: Recorded pKi for Cc1c(NC2=NCCN2)ccc2c1NCCN2 with Alpha-2C adrenergic receptor (Homo sapiens), please?
a: 6.92

q: Recorded pKi for Cc1c(NC2=NCCN2)ccc2nccnc12 with Alpha-2C adrenergic receptor (Homo sapiens), please?
a: 7.57

* * *

Consider the following compounds; for each one, report its Ki.
biological target: Adrenergic receptor alpha-1 (Homo sapiens, UniProt P35348+P25100+P35368); experiment: Compound was tested for binding affinity based on dissociation constant of Alpha-1 adrenergic receptor; assay type: protein assay
Your answer should be a plain number; it is taken to be in nM.

q: I have this compound here, Cc1c(NC2=NCCN2)ccc2c1NCCO2 , and I need its recorded Ki.
a: 470

q: I have this compound here, Nc1cc(Cl)c(N=C2NCCN2)c(Cl)c1 , and I need its recorded Ki.
a: 180

* * *

Measured Attribute: pKi
Worth noting: pKi values are minus log10 of concentrations stated in mol/L.

q: Recorded pKi for Cc1c(NC2=NCCN2)ccc2nccnc12 with Alpha-2B adrenergic receptor (Rattus norvegicus, UniProt P19328), please?
a: 7.77
